experiment: soluble on expression in E. coli; label from the status in PepcDB or PDB records
endpoint: soluble on expression in E. coli

MPRISKRQLILESAAAIINEKGADYLTLDAVAQRAGISKGGLFYHFKSKDELIKELVNYANNLYRDNVNQHIGNEKNKKGQWLNAFIEATRAHRTDNAPITSGMLAAQGTNRSLLSPLKTSYQEWQYQITHDGLDEVDATIIRLAVDGLWLSEIFGISAIDEEMREKVIERLKMQIEKN : not soluble
MEPSTIVKLDVGGKIFKTTIFTLCKHDSMLKTMFCTDVPVTKNEEGSVFIDRDSKHFRLILNFLRDGQIALPDSDREVREVLAEASYFLLDPLIELCGERLEQSLNPYYHLVSTVLEARKIIFATEKPIVVLRLPVYIATSGNQSYYFSETKFRELSEEYHKHVAFILITEPEFNEDCSWSFFLRAKKITARIKGPMDCNLVEECMPKTVERRREKKTWH : not soluble
MKPANLIHPSVIMSKKYNKMGEGCIICASNIITVNVTLGDHIIVNLDCTIGHDVVINDYVTIYPSVNVSGNCNIGECVELGTGTQVIQGNNIGDRTIVGAGSVVIRNIEGDKVAVGVPTKVIKLEHHHHHH : not soluble
MLIRSETPADQRAIFDVTQAAFRGHPHSEQTEAYIVQALRAAGALTLSLVAELDARVVGHAAFSPVQISDGSPSWFGLGPVSVDPAHQGRGIGTALIEHGLARLQARGAAGCVLVGEPAYYGRFGFRPEPGLVLPDMPPTHFLALTFGAPARGTVTYHPGFAARDA : not soluble
MGSDKIHHHHHHMFSKSLEALHHAKRYRKRELFDPLLKDYASNDYLGLSVKKDLLQNAFNKLQSFVSHSPKASMLVNGYHPLHAELEERLANLLGFESALLVGSGFLGNLALIDTLLVKNALLFMDAHYHASGIFSTKIKPNQVIFFSHNDIKDLKQKLFNAPKNKIKFIAIEGVYSMDASVAPYDFYAIIQEIPNAFLIVDEAHSFGTIGENLLGFLEYYRIKEKDKIIKLSTFSKALASYGACILAPLQTIEFLTNRAKSVIYTTALSLLDTALTLAHLEYFIVQKQELKNELSKHQQIIFETLGIRTLAGFFTLEFESNPALLNAHHFLKEKGFLVGAIRPPTVSKPLLRVSLSLKNSLEDTKELANTLLNYSKIQSSFKSG : not soluble

Sample MPLSYSSPSSSEERSDDPSKYDGDFGVPQICFCGKQLELVERLIGDQKKTFLKCPMSGQDDNYHVDKGWDLAVHEQCFCIDKRFGEHRELIQNAFKFGGDSNRLQINQIHAEIEDLKHRLDKKDAEIARLMDALGKK — what was its soluble on expression in E. coli?
not soluble

Sample MPSGLFMDLLPFLLDANLSATNPPAIPHWWKRQPLIPNLLSQELKNYLKLNVKEKNIQIADQVIIDETAGEVVIGANTRICHGAVIQGPVVIGANCLIGNWICPYISRHLLSLNPLQARCRRYSRGERLEHHHHHH — what was its soluble on expression in E. coli?
not soluble

Sample MGSDKIHHHHHHMTLLIVGATGTLGRQVARRAIDEGYKVRCLVRSPKRAAFLKEWGAELVRGDLCQPQTLAEALEGVTAVIDAATSRATDSLTIKQVDWEGQIALIQAAKAASVERFIFFSIIDADKYPEVPLMEIKRCTELFLAESGINYTVLRLAGFMQGLIGQYGIPILEGQPVWVTGASSPVAYMDTLDIAKFAVRALSVPETEKQAFPVVGTRAWSAEEIINLCERLSGKEAKVRRMPINLLRAVRGLAKFFQWGWNIADRLAFTEVLASGRPLNASMDEVYTVFGLEKEQSTTLESYLQEYFSRILKKLKQLDYEKTKTKKQKDKKTPFKKVNS — what was its soluble on expression in E. coli?
not soluble

Sample GPGSRGIDGRQVVRREIKWANMAADWNKTNTKMHAKLKERCRKGIPSRFRGVAWQLLMGSFHQLNSEENNGVYVALRDKKLADKETDVIISRDLARTFPTHVLFQDPGGVGQTFLRNILHAYAGCDPEVGYVQGMGFLVAALSTQMAEGGVLLGPA — what was its soluble on expression in E. coli?
not soluble

Sample MTQLATICYIDNGDSLLLLHRNKKENDVHKGKWISVGGKLEAGETPDECARREILEETHLTVTEMAFKGIITFPEFTPGHDWYTYVFKVTGFEGDLISDEESREGTLEWVPYDQVLEKPTWEGDYDIFKWILEDRSFFSAKFTYDQNNQLMDKSVTFY — what was its soluble on expression in E. coli?
not soluble

Sample MSLIISELRHEHALRDLLRAAGMSRSTWYYNMNALKQGDRYAGLKENIRKIYHYHKGRYGYRRITLALRKQGLRINHKTVQRLMAELSLRSVIRAKKYRAWKGRTGEAAPNILSRNFGASKANEKWVTDVTEFPVQGKKLYLSSVLDLFNREVIAYSLSERPVMEMVNTMLDGAFPKLRPGDAPLLHSDQGWHYRMRSYQERLKAHGMTQSMSRKGNCLDNAVMENFFGTLKSECFYLREFRSVSALRKAVEDYIHYYNNERISLKLKGLSPVEYRTQALRAAEGHHHHHH — what was its soluble on expression in E. coli?
not soluble

Sample MGSDKIHHHHHHMTHDLLDLLRQWHQSPDEAWVLAVLTQVQGSSYRKPGAMMLFHPMGKSYGMLSGGCLEADLRRHAQQVIQSQCVAQVEYDASDESDSSYQLGCGGIVNIMLVTVTKANDYLGFNPLLAALARGDSVEYELSLPANASPCQQASAKLSIVPLSDNLTQAQLKGAHKAVTAYKHEVLTMRLAPPIALGIFGAGLDAQPVAAMAQQLGWQVSVFDERSAYGRLYDFPSVKVVKGPFDAIEPAILKRLDAAIVMSHNLNLDAKALSLLASLSQPHSHNNLAYLALLGPPQRRDRVLRIAGLELADIKCFFSAPAGLALGGELPSSVALSIVSQCHGVLHGSAIIALDEVMGCP — what was its soluble on expression in E. coli?
not soluble
